# Assay name: Cytotoxicity assay (CellTitre-Blue) in HEK-293T
# Assay type: cell-based
# Conditions used: human, HEK-293T cells
Listed here are molecules together with their documented CC50 at 4 days.

Molecule	CC50 at 4 days
C=C(C)C1CCC2(CCNC3CCN(CC)CC3)CCC3(C)C(CCC4C5(C)CCC(OC(=O)CC(C)(C)CC(=O)O)C(C)(C)C5CCC43C)C12 (stereo not drawn)	> 1 µM
C=C(C)C1CCC2(CCNCCCN3CCCC3)CCC3(C)C(CCC4C5(C)CCC(OC(=O)CC(C)(C)CC(=O)O)C(C)(C)C5CCC43C)C12 (stereo not drawn)	> 1 µM
C=C(C)C1CCC2(CCNCCN(C)C)CCC3(C)C(CCC4C5(C)CCC(OC(=O)CC(C)(C)CC(=O)O)C(C)(C)C5CCC43C)C12 (stereo not drawn)	> 1 µM
C=C(C)C1CCC2(CCNC3CCN(C)CC3)CCC3(C)C(CCC4C5(C)CCC(OC(=O)CC(C)(C)CC(=O)O)C(C)(C)C5CCC43C)C12 (stereo not drawn)	> 1 µM
C=C(C)C1CCC2(CCNC3CCN(CCO)CC3)CCC3(C)C(CCC4C5(C)CCC(OC(=O)CC(C)(C)CC(=O)O)C(C)(C)C5CCC43C)C12 (stereo not drawn)	> 1 µM
C=C(C)[C@@H]1CC[C@]2(C(=O)O)CC[C@]3(C)[C@H](CC[C@@H]4[C@@]5(C)CC[C@H](OC(=O)CC(C)(C)C(=O)O)C(C)(C)[C@@H]5CC[C@]43C)[C@@H]12 [BVM, reference compound]	> 5 µM
